Method: Cytotoxicity against rat 3Y1 cells incubated for 2 days by MTT assay
Assay type: toxicity, cell-based
Please respond with reported IC50 at 2 days for every item in the list.
Reply with just the number (in µM).

Form field: reported IC50 at 2 days of C/C=C1\NC(=O)[C@H](Cc2ccccc2)NC(=O)[C@@H]([C@@H](C)CC)NC(=O)[C@@H]([C@@H](C)CC)NC(=O)[C@H](NC(=O)[C@@H](CC(C)C)NC(=O)[C@H](CCCN)NC(=O)[C@H]2CCCN2C(=O)[C@H](NC(=O)[C@@H](NC(=O)[C@@H](NC(=O)[C@H](NC(=O)C=C(C)C)[C@@H](C)O)C(C)C)C(C)C)C(C)C)[C@@H](C)OC(=O)[C@H](C(C)C)NC1=O
7.4

Form field: reported IC50 at 2 days of C/C=C1\NC(=O)[C@H](Cc2ccccc2)NC(=O)[C@@H]([C@@H](C)CC)NC(=O)[C@@H]([C@@H](C)CC)NC(=O)[C@H](NC(=O)[C@@H](CC(C)C)NC(=O)[C@H](CCCN)NC(=O)[C@H]2CCCN2C(=O)[C@H](NC(=O)[C@@H](NC(=O)[C@@H](NC(=O)[C@H](NC(=O)CCC)[C@@H](C)O)C(C)C)C(C)C)C(C)C)[C@@H](C)OC(=O)[C@H](C(C)C)NC1=O
10
